Target: HIV-1 integrase (Human immunodeficiency virus type 1 group M subtype B)
Construct: Expression and purification of the recombinant HIV-1 integrase in Escherichia coli; made in house; host or cells: Escherichia coli
Assay: Strand transfer assay with preprocessed (19/21) DNA substrate
Format: biochemical
Conditions: read-out: inhibition activity, preprocessed substrate, Mg2+; drug concentration of 333 μM
reported-property: inhibition at 333 µM

{"compound": "CC(C)c1ccc(O)c(=O)cc1 [NSC 43338, γ-thujaplicin]", "inhibition at 333 µM": "< 5%"}
{"compound": "CC(C)=CCc1ccc(=O)c(O)cc1C(C)C [NSC 43339, nootkatin]", "inhibition at 333 µM": "5 to 20%"}
{"compound": "C=C(C)C1CCc2c(c(C)cc(O)c(=O)c2O)C1 (stereo not drawn) [NSC 310618, manicol]", "inhibition at 333 µM": "20 to 40%"}

Tell us which inhibition at 333 µM value is on record for CC(C)c1ccccc(=O)c1O [NSC 18805, α-thujaplicin] < 5%

Tell us which inhibition at 333 µM value is on record for O=c1cccccc1O [NSC 89303, tropolone] 5 to 20%

Tell us which inhibition at 333 µM value is on record for CC(C)c1cccc(=O)c(O)c1 [NSC 18804, β-thujaplicin] 5 to 20%
